These measurements were taken from patent US9497963B2.

# Test system: male gypsy moth antenna
# test: Coupled gas chromatographic-electroantennographic detection (GC-EAD)
# Design: species or system Lymantria dispar
# measurement.parameters: EAD peak size and shape (sharp/broad)
# Excerpt: In GC-EAD assays, the analyte is processed by gas chromatography (GC). The column effluent is split, such that molecules of each chromatographic peak arrive simultaneously at the flame ionization detector of the GC and at an anectomized but otherwise intact insect antenna as the biological detector. This procedure detects specific compounds in the analyte that elicit an electrical potential from the antenna. […]
property: GC-EAD activity

C=CCOc1ccccc1OCC=C | None
CCCOc1cccc(OCCC)c1 | None
CCCCOc1ccccc1OC | Trace

====

# System: male gypsy moth antenna
# test: Coupled gas chromatographic-electroantennographic detection (GC-EAD)
# Set-up: species or system Lymantria dispar
# measurement.parameters: EAD peak size and shape (sharp/broad)
property: GC-EAD activity

Worked examples follow.
COc1ccc(O)cc1 | None
COc1cccc(OCCC(C)C)c1 | None
CCOc1ccccc1OC | ++ sharp
CCCOc1cccc(OCC)c1 | None
CCOc1ccc(OCC)cc1 | Trace
CCCOc1ccc(OCCC)cc1 | None

Consider the compound `CCCOc1ccccc1O` and give its measured GC-EAD activity.
None

Consider the compound `CCCOc1ccccc1OCCC` and give its measured GC-EAD activity.
++ sharp

Consider the compound `CCCCOc1ccc(O)cc1` and give its measured GC-EAD activity.
None
